system: SNB-19; experiment: NCI tumour cell line growth inhibition, 48 h
Activity calls are given as the source filed them. Cut-off read from the data, not from the text of the source: active = GI50 up to about 1.1 µM and inactive = higher.
property: GI50

1) OC(c1ccccc1)(c1ccccc1)c1ccccn1 : > 100 µM (inactive)
2) S=C1SCC2CCCN12 (stereo not given) : > 100 µM (inactive)
3) C=C1C(=O)OC2C[C@H](C)C3CC(=O)C(C)=C3CC12 (stereo not given in full) : 32.9 µM (inactive)
4) CN1c2ccccc2NC(CC(=O)O)C2CC=CN21 (stereo not given) : > 100 µM (inactive)
5) CCCC/C=C1\CCC(CN2CCCCC2)C1=O (stereo not given) : 31.7 µM (inactive)
6) O=C(CC1(O)C(=O)Nc2ccccc21)c1ccc(O)cc1 (stereo not given) : > 100 µM (inactive)
7) Nc1nc(Br)nc2ncn(C3CC(O)C(CO)O3)c12 (stereo not given) : 42.2 µM (inactive)
8) O=C(CCc1cc(-c2ccco2)n(-c2ccc([N+](=O)[O-])cc2[N+](=O)[O-])n1)Nc1ccccc1 : > 100 µM (inactive)
9) CN1C(=O)c2ccccc2OC12C=Cc1ccc(O)cc1O2 (stereo not given) : 20.4 µM (inactive)
10) Nc1nc2c3nc(Nc4ccccc4)sc3nc(=S)n2c2sc(Nc3ccccc3)nc12 : 40.1 µM (inactive)
11) O=c1nc(-c2ccccc2)c2c3c(cccn13)CCC2 : > 100 µM (inactive)
12) CCCCCCCCCCCC1NC(N)=NC(CCCO)=C1C(=O)OC (stereo not given) : 1.83 µM (inactive)
13) O=C(CCCCCCCCCCc1ccccc1)C1=C(O)CCCC1=O : 46.2 µM (inactive)
14) C#CC(C)(C)Oc1cc(OC)c2c(=O)c3ccccc3n(C)c2c1 : 14.7 µM (inactive)
15) Cc1cn(C2CC(O)C(Cn3nncc3Cn3ccc(=O)[nH]c3=O)O2)c(=O)[nH]c1=O (stereo not given) : > 100 µM (inactive)
16) O=C1C(/C=C/c2ccc(Cl)cc2)=NNC2N1N=C1NC(=O)C3(NN12)c1ccccc1-c1ccccc13 (stereo not given) : > 100 µM (inactive)
17) CCCCC1(NN=C2CCCCC2)C(=O)N(c2ccccc2)N(c2ccccc2)C1=O : > 100 µM (inactive)
18) CN(C)c1ccc(/C=C2\C[C@H]3[C@@H]4CCc5cc(O)ccc5[C@H]4CC[C@]3(C)C2=O)cc1 : > 100 µM (inactive)
19) CN(C)CCNc1ccc(CO)c2oc3ccc(O)cc3c(=O)c12 : 17.1 µM (inactive)
20) Cc1cccc(C(C)(C)C)c1NC(=O)CC1C(=O)Nc2ccccc2[S+]1[O-] (stereo not given) : 57.1 µM (inactive)
21) CCCOC(=O)C1C2CCC(O2)C1C(=O)O (stereo not given) : > 100 µM (inactive)
22) O=C(NN1C(=O)C(Cl)C1c1c(O)ccc2ccccc12)c1ccccc1O (stereo not given) : > 100 µM (inactive)
23) CC1COC(c2cn[nH]c2C(N)=O)C1O (stereo not given) : > 100 µM (inactive)
24) N#Cc1cc(C#N)c(N)nc1N : > 100 µM (inactive)
25) O=C(COc1ccc(OCC(=O)N2C(=O)CC(=O)N(c3ccccc3)C2=S)cc1)N1C(=O)CC(=O)N(c2ccccc2)C1=S : 69.7 µM (inactive)

###

system: NCI-H460; experiment: NCI tumour cell line growth inhibition, 48 h
Active and inactive are the calls of the source. No stated cut-off is given here; in the data, active = GI50 up to about 1.1 µM and inactive = higher.
Outcome codes: active, inactive

1. O=C(CC1Sc2ccccc2NC1=O)Nc1cccc(Cl)c1 (stereo not given) : inactive
2. COc1cccc2c1C(=O)c1c(O)c3c(c(O)c1C2=O)C[C@@](O)(C(C)=O)C[C@@H]3OC1OC(C)C(O)C(N)C1Br (stereo not given in full) : active
3. CCN(CC)c1ncnc2c1ncn2CCNC(CO)(CO)CO : inactive
4. O=c1c2ccccc2[nH]c2c(O)ccc(O)c12 : inactive
5. O=C(c1ccccc1)n1c(Cc2ccccc2)nc2cc(C34CC5CC(CC(C5)C3)C4)ccc21 : inactive
